The reported measurements were obtained from paper PMC2765255.

- Tested on: STX biosynthesis in S. aureus
- EXPERIMENT NOTES: Staphyloxanthin biosynthesis inhibition assay
- Type: cell-based
- RECORDED CONDITIONS: Staphylococcus aureus, 72 h, read-out: staphyloxanthin IC50
READOUT NAME: pIC50
Remember the convention: pIC50 equals -log10 of concentration in molar.

Looking for the measured pIC50 of O=P(O)(O)C(CCCc1cccc(Oc2ccc(O)cc2)c1)S(=O)(=O)O (stereo not shown) , can you help?
5.17
